Test system: TRKC
Construct: gene NTRK3
metric: Kd (nM)
The reply should contain only the number, in nM.

Inquiry: I'm curious: which Kd was measured for CC(=O)c1cccc(NC(=O)NC2CCN(c3ccnc(Nc4ccc(F)cc4)n3)C2)c1 (stereo not shown) [GSK1379710] tested on TRKC?;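 note: kd values determined as follow-up on hits from a single-replicate KINOMEscan panel screen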
Reply text: 94

---

Tested on: HPK1;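 note: KINOMEscan kinase panel screen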
Conditions: concentration: 1 μM, replicates: in singlicate; n = 1
Note that class boundaries on %Inh are lower (below 30%), middle (30% to below 40%), upper (40% or more)

Here are 3 molecules together with their reported answers.
> print(dat)
                                   molecule  group.label
1             Cn1cnc2c(N)ncnc21 [SKF-97623]       middle
2  Fc1ccc(-c2nn3cccc(F)c3c2-c2ccncc2)cc1 [GW475620]        lower
3  COc1ccc2cc(-c3nc(-c4ccccc4C(C)C)[nH]c3-c3ccncc3)ccc2c1 [SB-660566]       middle

Inquiry: Sort into band: CS(=O)(=O)CCNCc1nc(-c2ccc3ncnc(Nc4ccc5c(cnn5Cc5ccccc5)c4)c3c2)cs1.Cl.Cl [GW569716]
Reply text: middle

Inquiry: Ok, now c1ccc(-c2ccnc3[nH]ccc23)cc1 [SB-693578]
Reply text: upper

Inquiry: Similarly, Cc1nccc(-c2c(-c3ccc(F)cc3)ncn2CCCN2CCOCC2)n1.Cl [SB-282975] ?
Reply text: lower
